# testedSystem: YqjM (Bacillus subtilis)
# Construct: gene namA; purified YqjM flavoenzyme
# Sequence (P54550 2-338): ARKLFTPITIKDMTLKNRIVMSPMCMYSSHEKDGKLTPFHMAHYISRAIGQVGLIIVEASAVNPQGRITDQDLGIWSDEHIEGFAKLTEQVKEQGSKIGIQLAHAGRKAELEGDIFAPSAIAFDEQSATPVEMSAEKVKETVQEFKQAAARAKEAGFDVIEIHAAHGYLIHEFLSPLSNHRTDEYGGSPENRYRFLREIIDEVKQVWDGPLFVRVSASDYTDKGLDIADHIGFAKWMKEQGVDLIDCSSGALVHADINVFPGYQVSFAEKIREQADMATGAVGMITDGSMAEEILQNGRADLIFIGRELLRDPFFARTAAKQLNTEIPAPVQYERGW
# experimentSummary: stopped-flow, flavin reduction at […] nm, anaerobic
# Assay type: biochemical
# experimentalParameters: Tris-HCl 50 mM, pH 7.5, 25 °C; 25 μM YqjM; reductive half reaction
pKd: −log10 of the molar value.
measuredAttribute: pKd

P = NC(=O)C1=CN([C@@H]2O[C@H](COP(=O)(O)OP(=O)(O)OC[C@H]3O[C@@H](n4cnc5c(N)ncnc54)[C@H](OP(=O)(O)O)[C@@H]3O)[C@@H](O)[C@H]2O)C=CC1
Q = NC(=O)C1=CN([C@@H]2O[C@H](COP(=O)(O)OP(=O)(O)OC[C@H]3O[C@@H](n4cnc5c(N)ncnc54)[C@H](O)[C@@H]3O)[C@@H](O)[C@H]2O)C=CC1
Query block: Quick check, higher pKd between P and Q ? Return value: the label identifying the chosen record.
Result block: P
(P: 4.40, Q: 3.85)
